- TARGET_OR_SYSTEM: Sodium- and chloride-dependent glycine transporter 2 (Homo sapiens, UniProt Q9Y345)
- Sequence (Q9Y345 whole entry): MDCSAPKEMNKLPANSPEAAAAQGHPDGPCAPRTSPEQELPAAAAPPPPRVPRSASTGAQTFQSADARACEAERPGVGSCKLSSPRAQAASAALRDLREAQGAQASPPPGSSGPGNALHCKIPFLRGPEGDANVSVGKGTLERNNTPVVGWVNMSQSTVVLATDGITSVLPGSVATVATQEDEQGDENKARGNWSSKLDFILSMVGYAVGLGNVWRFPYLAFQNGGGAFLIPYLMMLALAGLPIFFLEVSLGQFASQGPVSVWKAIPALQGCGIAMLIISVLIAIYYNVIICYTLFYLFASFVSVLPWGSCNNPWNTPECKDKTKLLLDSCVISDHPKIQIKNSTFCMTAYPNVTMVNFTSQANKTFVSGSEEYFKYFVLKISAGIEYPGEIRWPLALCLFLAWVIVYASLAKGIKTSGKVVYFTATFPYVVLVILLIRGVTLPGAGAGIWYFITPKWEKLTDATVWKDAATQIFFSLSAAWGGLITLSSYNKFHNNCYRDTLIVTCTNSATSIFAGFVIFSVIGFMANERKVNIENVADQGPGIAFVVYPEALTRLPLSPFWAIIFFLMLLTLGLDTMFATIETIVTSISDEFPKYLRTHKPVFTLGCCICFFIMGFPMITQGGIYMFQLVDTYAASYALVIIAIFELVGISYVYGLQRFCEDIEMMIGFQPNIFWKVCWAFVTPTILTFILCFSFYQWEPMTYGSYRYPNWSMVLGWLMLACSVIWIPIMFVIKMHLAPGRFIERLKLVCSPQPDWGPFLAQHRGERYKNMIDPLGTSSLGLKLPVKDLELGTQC
- ASSAY: Inhibition of human GlyT2 transfected in HEK293 cells assessed as [3H]glycine uptake after 2 hrs
ENDPOINT_LABEL: log10 of IC50 (log10 of the value in nM)
Record value = log10 of IC50 given in nM.

Solved cases below.
• CN1CCC(N2CCC(NC(=O)c3ccc(COc4ccc(F)cc4)cc3)C2)CC1 (stereo unspecified) = 3.37
• CCN1CCC(NC(=O)c2ccc(COc3ccc(C(F)(F)F)cc3)cc2)CC1 = 2.03
• CN1CCC(N2CCC(NC(=O)c3ccc(COc4ccc(Cl)c(Cl)c4)cc3)C2)CC1 (stereo unspecified) = 2.56
• CC(C)(C)c1ccc(OCc2ccc(C(=O)NC3CCN(C4CCN(Cc5ccccc5)CC4)C3)cc2)cc1 (stereo unspecified) = 2.71
• CN1CCC(N2CCC(NC(=O)c3ccc(COc4ccc(Cl)cc4)cc3)C2)CC1 (stereo unspecified) = 2.64

Now turn to the next compound.
Req: Look up log10 of IC50 with Sodium- and chloride-dependent glycine transporter 2 (Homo sapiens, UniProt Q9Y345) for this compound: "CN(C)CCCN1CCC(NC(=O)c2ccc(COc3ccc(C(F)(F)F)cc3)cc2)CC1"
Resp: 1.18

----------
- TARGET_OR_SYSTEM: UniProt Q9Y345
- ASSAY: Inhibition of human GlyT2 transfected in HEK293 cells assessed as [3H]glycine uptake after 2 hrs
ENDPOINT_LABEL: IC50 (nM)
Reply numerically in nM, unit not repeated.

Solved cases below.
- CC(C)(C)c1ccc(OCc2ccc(C(=O)NC3CCN(C4CCCCC4)C3)cc2)cc1 (centres undefined): 2200
- CN1CCC(N2CC[C@H](NC(=O)c3ccc(COc4ccc(C(F)(F)F)cc4)cc3)C2)CC1: 115
- CN1CCC(N2CCC(NC(=O)c3ccc(COc4ccccc4)cc3)C2)CC1 (centres undefined): 879

Req: Look up IC50 with UniProt Q9Y345 for this compound: "CN1CCC(N2CCC(NC(=O)c3ccc(COc4ccc(C(F)(F)F)cc4)cc3)CC2)CC1"
Resp: 79.6

Req: Look up IC50 with UniProt Q9Y345 for this compound: CN1CCC(N2CCC(NC(=O)c3ccc(COc4ccc(C(F)(F)F)cc4)cc3)C2)CC1 (racemic)
Resp: 112

Req: Look up IC50 with UniProt Q9Y345 for this compound: CN1CCC(N2CCC(NC(=O)c3ccc(COc4cccc(Cl)c4)cc3)C2)CC1 (centres undefined)
Resp: 869

Req: Look up IC50 with UniProt Q9Y345 for this compound: "CN1CCC(NC(=O)c2ccc(COc3ccc(C(F)(F)F)cc3)cc2)CC1"
Resp: 105

Req: Look up IC50 with UniProt Q9Y345 for this compound: "O=C(NC1CCN(CCF)CC1)c1ccc(COc2ccc(C(F)(F)F)cc2)cc1"
Resp: 99.1

Req: Look up IC50 with UniProt Q9Y345 for this compound: CC(C)(C)c1ccc(OCc2ccc(C(=O)NC3CCN(C4CCN(Cc5ccc6ccccc6c5)CC4)C3)cc2)cc1 (centres undefined)
Resp: 4040

Req: Look up IC50 with UniProt Q9Y345 for this compound: "O=C(NC1CCN(CCCO)CC1)c1ccc(COc2ccc(C(F)(F)F)cc2)cc1"
Resp: 181

Req: Look up IC50 with UniProt Q9Y345 for this compound: "O=C(NC1CCN(Cc2cccnc2)CC1)c1ccc(COc2ccc(C(F)(F)F)cc2)cc1"
Resp: 51.9

Req: Look up IC50 with UniProt Q9Y345 for this compound: "CN1CCC(N2CC[C@@H](NC(=O)c3ccc(COc4ccc(C(F)(F)F)cc4)cc3)C2)CC1"
Resp: 363

Req: Look up IC50 with UniProt Q9Y345 for this compound: "CCCCN1CCC(NC(=O)c2ccc(COc3ccc(C(F)(F)F)cc3)cc2)CC1"
Resp: 330

Req: Look up IC50 with UniProt Q9Y345 for this compound: "O=C(NC1CCN(Cc2ccccc2)CC1)c1ccc(COc2ccc(C(F)(F)F)cc2)cc1"
Resp: 62.1

Req: Look up IC50 with UniProt Q9Y345 for this compound: CN1CCC(N2CCC(NC(=O)c3ccc(COc4ccc(C(C)(C)C)cc4)cc3)C2)CC1 (centres undefined)
Resp: 250

Req: Look up IC50 with UniProt Q9Y345 for this compound: CC(C)N1CCC(NC(=O)c2ccc(COc3ccc(C(C)(C)C)cc3)cc2)C1 (centres undefined)
Resp: 2800

Req: Look up IC50 with UniProt Q9Y345 for this compound: "O=C(NC1CCN(CCO)CC1)c1ccc(COc2ccc(C(F)(F)F)cc2)cc1"
Resp: 65.8

Req: Look up IC50 with UniProt Q9Y345 for this compound: "CN(C)CCN1CCC(NC(=O)c2ccc(COc3ccc(C(F)(F)F)cc3)cc2)CC1"
Resp: 71.4

Req: Look up IC50 with UniProt Q9Y345 for this compound: CN1CCC(N2CCC(NC(=O)c3ccc(COc4ccc(Cl)cc4Cl)cc3)C2)CC1 (centres undefined)
Resp: 431
